experiment: Selectivity index, ratio of CC50 for dog MDCK cells to EC50 for antiviral activity against Influenza A virus H3N2 (A/California/2004) infected in MDCK cells; format: toxicity, cell-based; conditions: read-out: Ratio CC50/EC50
Measured Property: selectivity ratio

// worked examples, selectivity ratio included
smiles_input=NC(=O)c1ncn([C@@H]2O[C@H](CO)[C@@H](O)[C@H]2O)n1 measured_property="selectivity ratio" measured=28.5
smiles_input=CCOC(=O)C1=C[C@@H](OC(CC)CC)[C@H](NC(C)=O)[C@@H](N)C1 measured_property="selectivity ratio" measured="> 136"

Next, consider the following compound.
Query: Supply recorded selectivity ratio for "O=[N+]([O-])c1ccc(S(=O)(=O)N(Cc2ccccc2)c2cccc3ccccc23)cc1" here.
Result: > 121

* * *

Catalogue of EC50 values
tested on: Influenza A virus; assay: Antiviral activity against Influenza A virus H1N1 (A/Virginia/ATCC2/2009) infected in MDCK cells assessed as reduction of viral replication incubated for 72 hrs by TCID50 method; format: functional, organism-based
Value expressed in µM; do not type the unit.

compound=O=[N+]([O-])c1ccc(S(=O)(=O)N(Cc2ccccc2)c2cccc3ccccc23)cc1 measured=3.34
compound="CCOC(=O)C1=C[C@@H](OC(CC)CC)[C@H](NC(C)=O)[C@@H](N)C1 [OSELTAMIVIR]" measured=1.71

Now turn to the next compound.
Query: Consider the compound NC(=O)c1ncn([C@@H]2O[C@H](CO)[C@@H](O)[C@H]2O)n1 [RIBAVIRIN] and give its recorded EC50.
Result: 18.5

* * *

system: Influenza A virus; test: Antiviral activity against Influenza A virus H3N2 (A/California/2004) infected in MDCK cells assessed as reduction of viral replication incubated for 72 hrs by TCID50 method; assay type: functional, organism-based
// EC50 lookup, one value per entry
The reply should be a number in µM, with the unit left off.

Look over these answered cases.
smiles_input=NC(=O)c1ncn([C@@H]2O[C@H](CO)[C@@H](O)[C@H]2O)n1 units_of_measure=µM measured=24.8
smiles_input=O=[N+]([O-])c1ccc(S(=O)(=O)N(Cc2ccccc2)c2cccc3ccccc23)cc1 units_of_measure=µM measured=6.61

With those in mind, consider the next compound.
Query: Find the measured EC50 of "CCOC(=O)C1=C[C@@H](OC(CC)CC)[C@H](NC(C)=O)[C@@H](N)C1" and report it.
Result: 5.9

* * *

assay: Cytotoxicity against dog MDCK cells assessed as reduction in cell viability incubated for 72 hrs by MTT assay; format: toxicity, cell-based, Canis lupus familiaris
Categories are assigned from the measured CC50 at 72 h using these intervals: low band (below 300 µM), middle band (300 µM to below 1000 µM), high band (1000 µM or more)

Query: Class? Entry: "CC(=O)c1ccc2c(c1)c(N(Cc1ccccc1)S(=O)(=O)c1ccc(C)cc1)cc1ccccc12"
Result: middle band

Query: Using the reported CC50 at 72 h, which band applies to "Cc1ccc(S(=O)(=O)Nc2cc3ccccc3c3cc(C)ccc23)cc1" ?
Result: low band

Query: Input "O=[N+]([O-])c1ccc(S(=O)(=O)N(Cc2ccccc2)c2cc3ccccc3c3ccccc23)cc1" ; output its category
Result: middle band

Query: Category of "Cc1ccc(S(=O)(=O)N(Cc2ccccc2)c2cc3ccccc3c3cc(Cl)ccc23)cc1" , please.
Result: high band

Query: Quick check: band for "CS(=O)(=O)N(C1=CCCc2ccccc21)c1ccccc1"
Result: middle band

Query: Kindly identify the class of "C=CCN(c1cc2ccccc2c2ccccc12)S(=O)(=O)c1ccc(C)cc1" .
Result: low band

Query: Exam item: assign "Cc1ccc(S(=O)(=O)N(Cc2ccccc2)c2cc3ccccc3c3ccc4ccsc4c23)cc1" to the correct category.
Result: high band

Query: Please classify: "CCCCN(C1=CCCc2ccccc21)S(=O)(=O)c1ccc(C)cc1"
Result: high band

Query: Hi, small favor: classify "COc1ccc(S(=O)(=O)N(Cc2ccccc2)c2cc3ccccc3c3ccccc23)cc1" by its CC50 at 72 h when you get a moment.
Result: low band

Query: # bin lookup: classify "Cc1ccc(S(=O)(=O)N(Cc2ccccc2)C2=CCCc3ccccc32)cc1" by its CC50 at 72 h
Result: high band

Query: Bin this entry: "CCCCN(c1cccc2ccccc12)S(=O)(=O)c1ccc(C)cc1"
Result: middle band

* * *

assay: Selectivity index, ratio of CC50 for dog MDCK cells to EC50 for antiviral activity against Influenza A virus H1N1 (A/Weiss/43) infected in MDCK cells treated for 72 hrs after viral adsorption; format: toxicity, cell-based; details: read-out: Ratio CC50/EC50
Measured Property: selectivity ratio at 72 h
// return a plain number; no unit text

smiles_input=NC(=O)c1ncn([C@@H]2O[C@H](CO)[C@@H](O)[C@H]2O)n1 measured_property="selectivity ratio at 72 h" measured=54.4
smiles_input=CS(=O)(=O)N(C1=CCCc2ccccc21)c1ccccc1 measured_property="selectivity ratio at 72 h" measured=6.78
smiles_input=CCCCN(C1=CCCc2ccccc21)S(=O)(=O)c1ccc(C)cc1 measured_property="selectivity ratio at 72 h" measured=29.3

# ---- query compound ----
Query: Indicate its recorded selectivity ratio at 72 h; the compound in question is "Cc1ccc(S(=O)(=O)N(Cc2ccccc2)C2=CCOc3ccccc32)cc1"
Result: 16.6

* * *

Here, each record is paired with measured log10 of CC50 at 72 h data.
assay: Cytotoxicity against dog MDCK cells assessed as reduction in cell viability incubated for 72 hrs by MTT assay; assay type: toxicity, cell-based, Canis lupus familiaris
log10 CC50 at 72 h, µM

Consider the reported log10 of CC50 at 72 h for these compounds:
smiles_input=Cc1ccc(S(=O)(=O)N(Cc2ccccc2)c2cccc3ccccc23)cc1 measured=3.14
smiles_input=C=CCN(C1=CCCc2ccccc21)S(=O)(=O)c1ccc(C)cc1 measured=2.10
smiles_input=CS(=O)(=O)Nc1cc2ccccc2c2ccccc12 measured=1.87

Query: State, in one line, measured log10 of CC50 at 72 h of "Cc1ccc(S(=O)(=O)N(C2=CCCc3ccccc32)c2ccccc2)cc1"
Result: 3.08

Query: Report measured log10 of CC50 at 72 h; entry is "NC(=O)c1ncn([C@@H]2O[C@H](CO)[C@@H](O)[C@H]2O)n1"
Result: 2.85

Query: Query log10 of CC50 at 72 h for "Cc1ccc(S(=O)(=O)N(Cc2ccccc2)c2cc3ccccc3c3ccc(F)cc23)cc1"
Result: 3.02

Query: Respond only with log10 of CC50 at 72 h recorded for "Cc1ccc(S(=O)(=O)N(Cc2ccccc2)C2=CCOc3ccccc32)cc1"
Result: 3.10

Query: Please give measured log10 of CC50 at 72 h of the following entry: "Cc1ccc(S(=O)(=O)N(C)c2cc3ccccc3c3ccccc23)cc1"
Result: 3.49

* * *

# maps each entry to its selectivity ratio
assay: Selectivity index, ratio of CC50 for dog MDCK cells to EC50 for antiviral activity against Influenza A virus H1N1 (A/Virginia/ATCC2/2009) infected in MDCK cells; assay type: toxicity, cell-based; conditions: read-out: Ratio CC50/EC50

Before answering, review these 2 worked examples.
molecule="CCOC(=O)C1=C[C@@H](OC(CC)CC)[C@H](NC(C)=O)[C@@H](N)C1 [OSELTAMIVIR]" measured="> 468"
molecule="NC(=O)c1ncn([C@@H]2O[C@H](CO)[C@@H](O)[C@H]2O)n1 [RIBAVIRIN]" measured=38.3

Consider now this further molecule.
Query: Provide only the value of recorded selectivity ratio for "O=[N+]([O-])c1ccc(S(=O)(=O)N(Cc2ccccc2)c2cccc3ccccc23)cc1"
Result: > 240

* * *

test: Selectivity index, ratio of CC50 for dog MDCK cells to EC50 for antiviral activity against Influenza A virus H1N1 (A/Weiss/43) infected in MDCK cells treated for 2 hrs during viral adsorption and measured after 72 hrs; format: toxicity, cell-based; details: read-out: Ratio CC50/EC50
Measured Property: selectivity ratio at 72 h

Query: Consider the molecule "O=[N+]([O-])c1ccc(S(=O)(=O)N(Cc2ccccc2)c2cccc3ccccc23)cc1" . State its measured selectivity ratio at 72 h.
Result: > 131

* * *

CC50 at 72 h overview
test: Cytotoxicity against dog MDCK cells assessed as reduction in cell viability incubated for 72 hrs by MTT assay; assay type: toxicity, cell-based, Canis lupus familiaris
Quick reminder: number only, in µM, skip the unit.

Example entries and their recorded answers appear below.
smiles_input=COC(=O)c1ccc2c(c1)c(N(Cc1ccccc1)S(=O)(=O)c1ccc(C)cc1)cc1ccccc12 units_of_measure=µM measured=3670
smiles_input=Cc1ccc(S(=O)(=O)N(c2ccccc2)c2cccc3ccccc23)cc1 units_of_measure=µM measured=1160
smiles_input=O=C1OCCN1c1cc2ccccc2c2ccccc12 units_of_measure=µM measured=212

With those in mind, consider the next compound.
Query: Provide measured CC50 at 72 h value, entry: "C=CCN(c1cccc2ccccc12)S(=O)(=O)c1ccc(C)cc1"
Result: 620
